These entries and their values trace back to the RNAGym collection of RNA variant scans (doi:10.1073/pnas.2313332121).

The following variants are listed with their measured polymerase ribozyme fitness (log ratio) values.
B1: TPR 5TU (parent)
chain: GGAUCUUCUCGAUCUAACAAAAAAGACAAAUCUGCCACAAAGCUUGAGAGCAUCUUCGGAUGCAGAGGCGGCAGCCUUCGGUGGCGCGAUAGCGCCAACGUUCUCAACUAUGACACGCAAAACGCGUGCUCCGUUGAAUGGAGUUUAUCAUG

# Variants of: B1
# Protocol details: polymerase ribozyme fitness, log enrichment relative to wild type (log ratio); higher = more active; in vitro selection for triplet polymerase activity
Fewer inactive variants are shown than the library holds.
Readout label: polymerase ribozyme fitness (log ratio)

mutation_id="C63A A147C" readout_label="polymerase ribozyme fitness (log ratio)" censoring_qualifier== test_value=0.331
mutation_id="C35A U144G U151A" readout_label="polymerase ribozyme fitness (log ratio)" censoring_qualifier=≤ test_value=-4.2
mutation_id="C5G U78C G84A G136U" readout_label="polymerase ribozyme fitness (log ratio)" censoring_qualifier== test_value=-3.39
mutation_id="C85A G117C" readout_label="polymerase ribozyme fitness (log ratio)" censoring_qualifier== test_value=-1.3
mutation_id="A17C A40U U53A C76G C93U U146G" readout_label="polymerase ribozyme fitness (log ratio)" censoring_qualifier=≤ test_value=-4.2
mutation_id="C10G C32G C38G U55G C87A G92A C125G G126A" readout_label="polymerase ribozyme fitness (log ratio)" censoring_qualifier== test_value=-4.1
mutation_id="C125U G126A" readout_label="polymerase ribozyme fitness (log ratio)" censoring_qualifier== test_value=-3.14
mutation_id="G92A G141C" readout_label="polymerase ribozyme fitness (log ratio)" censoring_qualifier== test_value=-3.71
mutation_id="C123U A142U" readout_label="polymerase ribozyme fitness (log ratio)" censoring_qualifier== test_value=-1.13
mutation_id="C75G C76G G81U C95G" readout_label="polymerase ribozyme fitness (log ratio)" censoring_qualifier=≤ test_value=-4.2
mutation_id="A21G A24G A47G G94C U102G C118U A121U" readout_label="polymerase ribozyme fitness (log ratio)" censoring_qualifier=≤ test_value=-4.2
mutation_id="G42A G58C G59C G88C A91G A106C A107G" readout_label="polymerase ribozyme fitness (log ratio)" censoring_qualifier=≤ test_value=-4.2
mutation_id="A22G A52U C85U U109G" readout_label="polymerase ribozyme fitness (log ratio)" censoring_qualifier== test_value=-3.97
mutation_id="G58A U135C" readout_label="polymerase ribozyme fitness (log ratio)" censoring_qualifier== test_value=-1.39
mutation_id="A37C U55G G94A" readout_label="polymerase ribozyme fitness (log ratio)" censoring_qualifier== test_value=0.0696
mutation_id="A60C C87A A98U" readout_label="polymerase ribozyme fitness (log ratio)" censoring_qualifier=≤ test_value=-4.2
mutation_id="A106G A142C" readout_label="polymerase ribozyme fitness (log ratio)" censoring_qualifier== test_value=-0.922
mutation_id="U6A A22G C125U" readout_label="polymerase ribozyme fitness (log ratio)" censoring_qualifier== test_value=-0.424
mutation_id="A16G A17G U56G U61G G68A C72U C114G G143U" readout_label="polymerase ribozyme fitness (log ratio)" censoring_qualifier=≤ test_value=-4.2
mutation_id="G48U C85U G140U" readout_label="polymerase ribozyme fitness (log ratio)" censoring_qualifier=≤ test_value=-4.2
mutation_id="G84A C131G" readout_label="polymerase ribozyme fitness (log ratio)" censoring_qualifier== test_value=-3.02
mutation_id="C18U C51U A89U C96A" readout_label="polymerase ribozyme fitness (log ratio)" censoring_qualifier== test_value=-2.24
mutation_id="A12G U45G C69G A91C A115G G133A G143U" readout_label="polymerase ribozyme fitness (log ratio)" censoring_qualifier=≤ test_value=-4.2
mutation_id="C43U A47G A64C G67U C96U G141A" readout_label="polymerase ribozyme fitness (log ratio)" censoring_qualifier=≤ test_value=-4.2
mutation_id="A98G A120G C125A U144A" readout_label="polymerase ribozyme fitness (log ratio)" censoring_qualifier== test_value=-1.16
mutation_id="C54G C79U G94C C96U A150G" readout_label="polymerase ribozyme fitness (log ratio)" censoring_qualifier=≤ test_value=-4.2
mutation_id="G11U G25C G71C C95G C103A C116G" readout_label="polymerase ribozyme fitness (log ratio)" censoring_qualifier=≤ test_value=-4.2
mutation_id="G25C A30U U78C C96G" readout_label="polymerase ribozyme fitness (log ratio)" censoring_qualifier== test_value=-3.97
mutation_id="A22C G34C U55G A91C G92U" readout_label="polymerase ribozyme fitness (log ratio)" censoring_qualifier=≤ test_value=-4.2
mutation_id="U44G A89U U144C" readout_label="polymerase ribozyme fitness (log ratio)" censoring_qualifier=≤ test_value=-4.2
mutation_id="A16G U78A C93G" readout_label="polymerase ribozyme fitness (log ratio)" censoring_qualifier=≤ test_value=-4.2
mutation_id="C87U A137C" readout_label="polymerase ribozyme fitness (log ratio)" censoring_qualifier== test_value=-3.99
mutation_id="C54A C57G U90G U139A G140U U146A" readout_label="polymerase ribozyme fitness (log ratio)" censoring_qualifier=≤ test_value=-4.2
mutation_id="A12U A17U A22C G34C U55A U56A C57U A64C C95U" readout_label="polymerase ribozyme fitness (log ratio)" censoring_qualifier=≤ test_value=-4.2
mutation_id="G11C C63U C85U G86U C114U" readout_label="polymerase ribozyme fitness (log ratio)" censoring_qualifier=≤ test_value=-4.2
mutation_id="G92A C95A C125G" readout_label="polymerase ribozyme fitness (log ratio)" censoring_qualifier== test_value=-3.82
mutation_id="C57G G86C" readout_label="polymerase ribozyme fitness (log ratio)" censoring_qualifier== test_value=-3.04
